The measured values listed here are drawn from PubChem BioAssay (NCATS).

# assay_overview: Quantitative High-Throughput drug screen in 47 multiple myeloma cell lines against the NCATS MIPE library collection: UTMC2_PLB cell viability assay (AID 1919868); further: nearly all actives have a fitted effect of over 55% in size
# measurement_parameters: CellTiter-Glo ATP luminescence, 48 h
Records with an inconclusive call do not appear. Calls of active or inactive are those of the source. The call rests on the fitted dose curve; in most records, active means well fitted cell-killing curve with a large enough effect; inconclusive means small, poorly fitted or top-dose-only effect, or effect the other way; inactive means no such curve, though single readings can be large or run the other way.
# output must be one of active, inactive

Study these solved cases before continuing.
[[record]]
molecule = "CC[C@@]1(O)C(=O)OCc2c1cc1n(c2=O)Cc2cc3cc(O)ccc3nc2-1"
group = "active"

[[record]]
molecule = "COc1ccc(F)c(F)c1C(=O)c1cnc(NC2CCN(S(C)(=O)=O)CC2)nc1N"
group = "active"

[[record]]
molecule = "CC=C1NC(=O)[C@H]2CSSCCC=C[C@H](CC(=O)N[C@H](C(C)C)C(=O)N2)OC(=O)[C@H](C(C)C)NC1=O"
group = "active"

[[record]]
molecule = "Nc1ccn([C@@H]2O[C@H](CO)[C@H](O)C2(F)F)c(=O)n1"
group = "active"

[[record]]
molecule = "Cc1ccc2nc(NC(=O)CSc3nc4c(c(=O)n3-c3ccccc3)SCC4)sc2c1"
group = "inactive"


Exercise: Record lookup: outcome of this test for CC(C)[C@H](C(=O)Nc1ccc(C(=O)NO)cc1)c1ccccc1 ?
Solution: active

Exercise: Record lookup: outcome of this test for O=C(NC1CCNCC1)c1[nH]ncc1NC(=O)c1c(Cl)cccc1Cl ?
Solution: active

Exercise: Record lookup: outcome of this test for O=C(O)c1ccc2c(c1)nc(Nc1cccc(Cl)c1)c1ccncc12 ?
Solution: active

Exercise: Record lookup: outcome of this test for CC(C)c1nn(-c2c(Cl)cccc2Cl)c2nc(Cc3ccc(OCCO)cc3)[nH]c(=O)c12 ?
Solution: active

Exercise: Record lookup: outcome of this test for Cc1cc(C(=O)N2CCN(c3cccc(Cl)c3)CC2)n(-c2ccccc2)n1 ?
Solution: active

###

# assay_overview: qHTS of pediatric cancer cell lines to identify multiple opportunities for drug repurposing: Primary screen for U-2 OS cells (AID 1347096); further: nearly all actives have a fitted effect of over 50% in size
# measurement_parameters: U-2 OS viability, CellTiter-Glo luminescence, 48 h; series mostly up to 46 µM
# Method: Drug repurposing or repositioning has been offered as a strategy for drug development in oncology programs. […] [1] Shen, M et al. Quantitative high-throughput phenotypic screening of pediatric cancer cell lines identifies multiple opportunities for drug repurposing. […] Cells were assayed in growth media at a density of 500-1,000 cells/well. […] After a 15 min incubation at room temperature, samples were analyzed for luminescence intensity using a ViewLux High-throughput CCD imager equipped with clear filters.
Results filed as inconclusive are left out. Active and inactive are the calls of the source. Calls follow the shape of the dose curve; as a rule, active = well fitted cell-killing curve with a large enough effect; inconclusive = small, poorly fitted or top-dose-only effect; inactive = flat fitted curve, though single readings scatter.
# output must be one of active, inactive

[[record]]
molecule = "C=CC(=O)N1CCC[C@@H](n2nc(-c3ccc(Oc4ccccc4)cc3)c3c(N)ncnc32)C1"
group = "inactive"

[[record]]
molecule = "CCc1cc2c(cc1N1CCC(N3CCOCC3)CC1)C(C)(C)c1[nH]c3cc(C#N)ccc3c1C2=O"
group = "inactive"

[[record]]
molecule = "C=C1C(=CC=C2CCC[C@]3(C)[C@@H]([C@H](C)C=C[C@H](C)C(C)C)CC[C@@H]23)C[C@@H](O)C[C@@H]1O"
group = "active"


Here's the next entry for you.
Exercise: Record lookup: outcome of this test for C[C@]12CC[C@H](O)CC1=CCC1C2CC[C@]2(C)C(n3cnc4ccccc43)=CCC12 (some centres undefined) ?
Solution: inactive
